# reported melting point; entries follow

What melting point value was documented for this compound, `Cc1csc(N2CCN(Cc3ccc(C(=O)n4nccc4C)cc3)C2=O)n1` ?
96 to 97 °C

Dear colleague, I am looking for the recorded melting point of the following compound: COc1ccc(Sc2[nH]c3cccc4c3c2CC2C4C=C(C)CN2C)cc1 (centres undefined)
> 250 °C

Fill in the blank: the reported melting point of CCC(=O)c1cc(C2(c3cccc(Br)c3)N=C(N)N(C)C2=O)cn1CC (centres undefined) is ____.
100 to 102 °C

// melting point lookup, key: `COC(=O)c1c(Cl)cc(C(F)(F)F)nc1C(F)(F)F`
48 to 49 °C

Need melting point of `COC(=O)c1ccc2c(c1)ncn2Cc1ccccc1` , thanks.
156 to 162 °C

Sample CC(Oc1ccc(Oc2ncc(Cl)cc2F)cc1)C(=O)Nc1ccc(OC(F)(F)F)cc1 (centres undefined) — what was its melting point?
92 to 93.5 °C

Consider now this further compound.
Any idea what its melting point is? The compound is C=CCN1CCN(C2N=C(N)OC2C)CC1 (centres undefined)
99 °C

###

Listed molecules paired with reported melting point

// known answers, use as guide
If you can, please state the reported melting point value of `C/C=C/CONC(=O)c1nc(-c2ccc(Cl)c(OC)c2F)cc(N)c1Cl` .
154 to 156 °C

melting point lookup needed for O=C(N[C@H](Cc1cccc(C(F)(F)F)c1)[C@@H](O)c1ccc(F)cc1)C1CCCCC1 (racemic) , thanks.
190 to 191 °C

Next molecule, please.
Record request: melting point value, item `CCCC(=O)c1cnc2c(OC)nccc2c1OS(C)(=O)=O`
184 to 185 °C

###

melting point for assorted molecules

Field request: melting point | item: `CCN(CC)C(=O)N1CCc2c([N+](=O)[O-])cc3[nH]c(=O)c(=O)[nH]c3c2C1`
> 300 °C

Any idea what melting point was measured for COc1ccccc1N1CCC(CNCC2COc3cccc(O)c3O2)CC1 (stereo not drawn) ?
116 to 119 °C

Reported melting point, molecule Cc1c2c(cc(=O)n1CC(C)O)CCC(c1ccccn1)C2 (stereo not drawn) : ____
300 °C

# query: melting point of entry COC(=O)C(Cc1ccc(OCc2ccccc2)cc1)N1CC(N2C(=O)c3ccccc3C2=O)C1=O (stereo not drawn)
147 to 148 °C

# lookup: melting point of `N#Cc1ccc(N(CCCCOc2ccc(O)cc2)n2cnnc2)cc1`
156 to 159 °C

Look at this molecule and give its reported melting point. `CCCCCCn1ccc(NC(C)=O)nc1=O`
129 to 130 °C

Please give the measured melting point for this molecule: CC(=O)C(C)(O)c1ccc(O)cc1 (stereo not drawn)
101 to 102 °C

Requested read-out: melting point. Entry: `CN(CCSCc1nc[nH]c1CSCCN(C)C(N)=S)C(N)=S`
154 to 155 °C

May I ask what melting point has been recorded for `O=C1SCCN1Cc1ccc(Cl)cc1` ?
68 to 69 °C

Consider the molecule shown here: COC12CC(C)(C)C(O1)C(OC(=O)c1ccc(N)cc1)C=C2C (stereo not drawn) What is its recorded melting point?
118 to 119 °C

###

Attribute: melting point

Some solved cases for reference:
Need melting point of `Cc1ccccc1Cc1nc[nH]c1C` , thanks.
138 to 140 °C

Fill blank: measured melting point of the compound CCc1ccc(C2COc3c(C)c(C)c(N)c(C)c32)cc1 (configuration not stated) is ____.
88 to 89 °C

Look at this compound and give its reported melting point. `CC(C)(C)OC(=O)C=Cc1ccc2ccccc2c1`
74 to 75 °C

Record request: melting point value, item `Cc1ccc2cccc(OCc3c(Cl)ccc(C(=O)O)c3Cl)c2n1`
267 to 270 °C

// lookup melting point for COc1ccc(C(CC(C)=O)N2C(=O)c3cccc(N(S(C)(=O)=O)S(C)(=O)=O)c3C2=O)cc1OC (configuration not stated)
194 to 196 °C

Param item = `Cc1cc(-c2nc3cccnn3c2-c2ccnc(NC(=O)c3cccnc3C)c2)ccc1F` ; retrieve measured melting point.
258 to 259 °C

Dear colleague, I am looking for the recorded melting point of the following compound: `OCc1ccc2ccn(C3CCN(CCc4ccccc4F)CC3)c2c1`
117 to 118 °C

For the compound shown here, `O=C(CCN1CCCC1)Nc1cc(-c2nnc(SCc3cccc(F)c3)o2)ccn1` , give the reported melting point.
114 to 115 °C

Can you share its melting point? I mean this compound: `CCOC(=O)Cc1c[nH]c2cc(C3CC3)nn2c1=O`
280 to 283 °C

Entry CC(C)C(NS(=O)(=O)c1ccc(Br)cc1)C(=O)OC(C)(C)C (configuration not stated) : reported melting point = ?
108 to 110 °C

Next:
What melting point value was documented for this compound, `COC(=O)COc1c(F)cc(SCCNS(=O)(=O)c2ccc(Cl)cc2)cc1F` ?
79.5 to 80.5 °C

Find the recorded melting point belonging to NC(=O)NN=C1c2ncc(Cl)cc2C=CC1Cl (configuration not stated) and report it.
> 280 °C
